- Tested on: CAL-148
- Experiment: normalised viability (% of control), CellTiter-Blue; higher = more viable cells (about 100 = DMSO control)
- Condition description: incubation time: 72 h
Measured metric: normalised viability (%)
One number for each entry, in %.

CC1=C2C[C@H]3[C@@H](CC=C4C[C@@H](O)CC[C@@]43C)[C@@H]2CC[C@]12O[C@@H]1C[C@H](C)CN[C@H]1[C@H]2C [Cyclopamine] (10000 nM)	116

Please give normalised viability, item by item, for the list that follows.
1. Nc1ncn([C@@H]2O[C@H](CO)[C@@H](O)[C@H]2O)c(=O)n1 [Azacitidine] (10000 nM)
2. Cc1sc2c(c1C)C(c1ccc(Cl)cc1)=N[C@@H](CC(=O)OC(C)(C)C)c1nnc(C)n1-2 [(+)JQ1] (10000 nM)

[82.8, 27.6]

* * *

- Tested on: MFM-223
- Experiment: drug sensitivity score (DSS), CellTiter-Glo (DSS (AUC-based score)); higher = stronger drug effect (viability inhibition or cytotoxicity); extreme values may be limits of the assay
- Condition description: incubation time: 72 h
Exercise: state measured drug sensitivity score for each of the compounds provided.
One number for each entry.

CC1(C)CCC(CN2CCN(c3ccc(C(=O)NS(=O)(=O)c4ccc(NCC5CCOCC5)c([N+](=O)[O-])c4)c(Oc4cnc5[nH]ccc5c4)c3)CC2)=C(c2ccc(Cl)cc2)C1	0

Now consider a different compound.
Query drug sensitivity score for CC(=O)O[C@@]12CO[C@@H]1C[C@H](O)[C@@]1(C)C(=O)[C@H](O)C3=C(C)[C@@H](OC(=O)[C@H](O)[C@@H](NC(=O)OC(C)(C)C)c4ccccc4)C[C@@](O)([C@@H](OC(=O)c4ccccc4)[C@H]21)C3(C)C 16.7

* * *

Exercise: state measured normalised response for each of the compounds provided.
- Tested on: BT-474
- Experiment: normalised response (% of control), CellTiter-Glo; higher = more viable cells (100 = DMSO, 0 = benzethonium chloride kill control)
- Condition description: incubation time: 72 h
Give bare numbers, in %.

Consider the following illustrative entries.
Cn1cnc2c(F)c(Nc3ccc(Br)cc3Cl)c(C(=O)NOCCO)cc21 [Selumetinib] (10000 nM)	55.5
O=C1CN2Cc3c(ccc(Cl)c3Cl)N=C2N1 [Anagrelide] (10000 nM)	88
CC(C)(C)c1cnc(CSc2cnc(NC(=O)C3CCNCC3)s2)o1 [SNS-032] (10000 nM)	31.8

Please give normalised response, item by item, for the list that follows.
1. Cc1sc2c(c1C)C(c1ccc(Cl)cc1)=N[C@@H](CC(=O)OC(C)(C)C)c1nnc(C)n1-2 [(+)JQ1] (10000 nM)
2. C[C@]1(O)C[C@@H](c2nc(-c3ccc4ccc(-c5ccccc5)nc4c3)c3c(N)nccn32)C1 [Linsitinib] (10000 nM)
3. O=NN(CCCl)C(=O)NCCCl [Carmustine] (10000 nM)
4. CC(=O)N(O)CCCCCNC(=O)CCC(=O)N(O)CCCCCNC(=O)CCC(=O)N(O)CCCCCN [Deferoxamine] (10000 nM)

66.1
68.8
91.5
76

* * *

- Test system: CAL-148
- Experiment: normalised response (% of control), CellTox Green; higher = less cell death (100 = DMSO, 0 = benzethonium chloride kill control)
- Condition description: incubation time: 72 h
Exercise: state measured normalised response for each of the compounds provided.
Answers are plain numbers, in %.

Cc1sc2c(c1C)C(c1ccc(Cl)cc1)=N[C@@H](CC(=O)OC(C)(C)C)c1nnc(C)n1-2 [(+)JQ1] (1000 nM)	67.3
C[C@]12CC[C@@H]3c4ccc(OC(=O)N(CCCl)CCCl)cc4CC[C@H]3[C@@H]1CC[C@@H]2O [Estramustine] (100 nM)	102

Now consider a different compound.
Supply normalised response measured with CAL-148 for COc1cc2c(cc1O)CC[C@@H]1[C@@H]2CC[C@]2(C)[C@@H](O)CC[C@@H]12 [2-methoxyestradiol] (100 nM) . 56.1
